target: Muscarinic acetylcholine receptor (Rattus norvegicus) (UniProt P08482+P08483+P08485+P08911+P10980)
// log10 of K app lookup, one value per entry
On a log10 scale: recorded K app, unit µM.

| Compound | log10 of K app |
| --- | --- |
| CCC1C=C(c2nc(C)no2)CNC1 (stereo not drawn) | 1.40 |
| CN1CCC=C(c2nc(N(C)C)no2)C1 | 0.40 |
| Cc1noc(C2=CCCNC2)n1 | 0.36 |
| FCCc1noc(C2=CCCNC2)n1 | 0.76 |

Challenge: Which log10 of K app is listed for `CN(C)c1noc(C2=CCCNC2)n1` ?
Response given: 0.54

Challenge: Which log10 of K app is listed for `CCc1noc(C2=CCCNC2)n1` ?
Response given: 0.63

Challenge: Which log10 of K app is listed for `OCCc1noc(C2=CCCNC2)n1` ?
Response given: 1.11

Challenge: Which log10 of K app is listed for `COC(=O)C1=CCCNC1` ?
Response given: 1.36

----------
experiment: pKa value was determined; assay type: physicochemical
// pKa lookup, one value per entry
API doc: respond with a numeric literal and nothing else, no unit.

Please review the following examples before continuing.
| Molecule | Val |
| --- | --- |
| Cc1noc(C2=CC(C)CN(C)C2)n1 (stereo unspecified) | 7.34 |
| Cc1noc(C2=CC(C)CNC2)n1 (stereo unspecified) | 8.17 |

Challenge: Which pKa is listed for Cc1noc(C2=CCC(C)NC2)n1 (stereo unspecified) ?
Response given: 8.2

Challenge: Which pKa is listed for `Cc1noc(C2=CCCN(C)C2)n1` ?
Response given: 7.16

Challenge: Which pKa is listed for `C=Cc1noc(C2=CCCNC2)n1` ?
Response given: 8.23

Challenge: Which pKa is listed for `Nc1noc(C2=CCCNC2)n1` ?
Response given: 8.25

Challenge: Which pKa is listed for `CN1CCC=C(c2nc(N(C)C)no2)C1` ?
Response given: 7.24

Challenge: Which pKa is listed for `FCCc1noc(C2=CCCNC2)n1` ?
Response given: 8.29

Challenge: Which pKa is listed for `CN(C)c1noc(C2=CCCNC2)n1` ?
Response given: 8.58

Challenge: Which pKa is listed for `Cc1noc(C2=CCCNC2)n1` ?
Response given: 8.24

Challenge: Which pKa is listed for Cc1noc(C2=CCC(C)N(C)C2)n1 (stereo unspecified) ?
Response given: 7.35

----------
molecular target: Muscarinic acetylcholine receptor (Rattus norvegicus) (UniProt P08482+P08483+P08485+P08911+P10980)
Quick rule: K app of at least 0.1 µM means true (1), below that means false (0).

Field: example entries. Status: answers known.
| Compound | Label value |
| --- | --- |
| OCc1noc(C2=CCCNC2)n1 | true (1) |
| COC(=O)C1=CCCNC1 | false (0) |
| Cc1noc(C2=CCCNC2)n1 | false (0) |

Challenge: Given Cc1noc(C2=CC(C)CNC2)n1 (stereo not drawn) , state whether its K app is at least 0.1 µM.
Response given: false (0)

Challenge: Given Cc1noc(C2=CC(C)CN(C)C2)n1 (stereo not drawn) , state whether its K app is at least 0.1 µM.
Response given: true (1)

Challenge: Given `CCc1noc(C2=CCCNC2)n1` , state whether its K app is at least 0.1 µM.
Response given: false (0)

Challenge: Given `CN1CCC=C(c2nc(N(C)C)no2)C1` , state whether its K app is at least 0.1 µM.
Response given: true (1)

Challenge: Given CCC1C=C(c2nc(C)no2)CNC1 (stereo not drawn) , state whether its K app is at least 0.1 µM.
Response given: true (1)

----------
// log10(K app) lookup, one value per entry
target: Muscarinic acetylcholine receptor (Rattus norvegicus) (UniProt P08482+P08483+P08485+P08911+P10980)
On a log10 scale: recorded K app, unit µM.

Please review the following examples before continuing.
| Compound | Val |
| --- | --- |
| CN(C)c1noc(C2=CCCNC2)n1 | -1.09 |
| C=Cc1noc(C2=CCCNC2)n1 | -1.46 |
| OCCc1noc(C2=CCCNC2)n1 | -0.64 |
| Cc1noc(C2=CCC(C)N(C)C2)n1 (stereo not given) | -1.21 |

Could you now look at the following compound, please?
Challenge: Which log10(K app) is listed for `FCCc1noc(C2=CCCNC2)n1` ?
Response given: -1.68

----------
// K app lookup, one value per entry
molecular target: Muscarinic acetylcholine receptor (Rattus norvegicus) (UniProt P08482+P08483+P08485+P08911+P10980)
# unit: µM | format: bare number

| Compound | Val |
| --- | --- |
| OCc1noc(C2=CCCNC2)n1 | 34 |
| Cc1noc(C2=CCC(C)N(C)C2)n1 (stereo not given) | 2.4 |
| Cc1noc(C2=CC(C)CN(C)C2)n1 (stereo not given) | 15 |
| Cc1noc(C2=CC(C)CNC2)n1 (stereo not given) | 2.7 |

Could you now look at the following compound, please?
Challenge: Which K app is listed for `C=Cc1noc(C2=CCCNC2)n1` ?
Response given: 2.5

# credit: ChEMBL document CHEMBL1125623
